Below is a list of entries, each paired with its recorded drug effect value.
system: Schistosoma mansoni schistosomula (Liberian); test: drug effect (1 - score/DMSO control score) (fraction); higher = more antischistosomal effect, active = 0.5 or more; extreme values may be limits of the assay; details: 48 h; 10 µM
Returns: the value as a bare number; no unit string appended.

# SMILES_CODE, drug effect
measured = [
    ("CC(C)(C)c1cc(C(=O)Nc2cccnc2)cc(C(=O)Nc2cccnc2)c1", 0.0811),
]

Looking up C[C@@H]1[C@H](O)[C@@H](C)/C=C/C=C/C=C/C=C/C=C/C=C/C=C/[C@H](O[C@@H]2O[C@H](C)[C@@H](O)[C@H](N)[C@@H]2O)C[C@@H]2O[C@](O)(C[C@@H](O)C[C@@H](O)[C@H](O)CC[C@@H](O)C[C@@H](O)CC(=O)O[C@H]1C)C[C@H](O)[C@H]2C(=O)O , I found its drug effect recorded as 0.15

Looking up CNC(=O)CNc1nc(-c2ccccn2)nc2scc(-c3ccccc3)c12 , I found its drug effect recorded as 0.111

---

tested on: Schistosoma mansoni schistosomula (Liberian); assay: drug effect (1 - score/DMSO control score) (fraction); higher = more antischistosomal effect, active = 0.5 or more; extreme values may be limits of the assay; conditions: 48 h; 10 µM
Use one of these outcomes when replying: true (active), false (inactive)

Prompt: Record request — test call for Cc1nc(-c2ccccn2)nc(N(C)CCc2ccccc2)c1Cl
Completion: false

Prompt: Record request — test call for FC(F)(F)c1cccc(-c2nc3c(NCc4ccncc4)nccc3[nH]2)c1
Completion: false

Prompt: Record request — test call for Cc1[nH]c2ccccc2c1C(c1cccs1)N1CCN(C)CC1 (stereo unspecified)
Completion: true

Prompt: Record request — test call for NCCN(C(=O)c1ccc(Cl)cc1Cl)c1ccc(OCc2ccc(Cl)cc2)cc1
Completion: false

Prompt: Record request — test call for O=C(NCCc1ccccc1)c1cc(-c2cccnc2)cnc1NCC1CC1
Completion: true

Prompt: Record request — test call for Clc1cccc(CO[C@H]2CCc3ccccc3[C@@H]2n2ccnn2)c1
Completion: false

Prompt: Record request — test call for CC(C)(C)C1CCC(CC2=C(O)C(=O)c3ccccc3C2=O)CC1 (stereo unspecified)
Completion: false

Prompt: Record request — test call for CS(=O)(=O)c1ccc(C(=O)N(CC2CCCO2)c2nc3ccccc3s2)cc1[N+](=O)[O-] (stereo unspecified)
Completion: true

Prompt: Record request — test call for CCCn1c(CNc2ccccc2O)nc2ccccc21
Completion: false

Prompt: Record request — test call for Cc1nnc(NCc2cccc(Cl)c2)c2ccccc12
Completion: false

Prompt: Record request — test call for O=C(N[C@H](Cc1ccccc1)C(=O)Nc1ccccc1N1CCOCC1)c1cccs1
Completion: false

Prompt: Record request — test call for Cc1nnc(NC(=O)c2cn(-c3ccccc3)nc2-c2ccccc2C)o1
Completion: false

Prompt: Record request — test call for FC(F)(F)c1ccc(N(c2cccnc2)C2CCN(c3ccc(C(F)(F)F)cn3)CC2)cc1
Completion: false

Prompt: Record request — test call for CC(=O)Nc1ccc(NC(=O)c2cc(-c3cc(Cl)ccc3O)[nH]n2)cc1
Completion: false

Prompt: Record request — test call for CCOC(=O)c1c(NC(=O)c2c(F)c(F)c(F)c(F)c2F)sc(C(N)=O)c1C
Completion: true

Prompt: Record request — test call for O=C1N(Cc2cc3ccccc3s2)CC2CN(Cc3ccccc3)CCN12 (stereo unspecified)
Completion: false

Prompt: Record request — test call for CN1CCN(c2cc(-c3ccc(F)cc3)nc(-c3ccncc3)n2)CC1
Completion: false

---

test system: Schistosoma mansoni schistosomula (NMRI); assay: phenotypic severity score (0-4); higher = more antischistosomal effect, active = 2 or more; settings: 48 h; 10 µM
RECORDED_METRIC: phenotypic severity score
Returns: the value as a bare number; no unit string appended.

Example cases with answers are listed next.
# COMPOUND, phenotypic severity score
measured = [
    ("O=C(NCc1cc(Cl)cc(Cl)c1)c1c(C(F)(F)F)nc2ccccn12", 1),
    ("CCc1ccccc1-n1c(C)cn2c3c(=O)n(C(C(=O)OC)C(C)C)c(=O)n(C)c3nc12 (stereo not drawn)", 0),
    ("FC(F)(F)c1cnc(Sc2nnc(-c3ccncc3)o2)c(Cl)c1", 1),
]

Now look at this entry.
Looking up COc1cc(CN2CCC3(C=Cc4ccccc43)CC2)cc2c1OCO2 , I found its phenotypic severity score recorded as 1

---

test system: Schistosoma mansoni schistosomula (Liberian); experiment: drug effect (1 - score/DMSO control score) (fraction); higher = more antischistosomal effect, active = 0.5 or more; extreme values may be limits of the assay; details: 48 h; 10 µM
Use one of these outcomes when replying: True = active, False = inactive

Observe how each entry below is paired with its result.
# COMPOUND, GROUP
rows = [
    ("CCCn1c(NC(=O)c2ccc3ccccc3n2)nc2ccccc21", "False"),
    ("OC[C@H]1O[C@@H](n2c3ccc(Cl)cc3c3c(-c4cc5ccccc5o4)ncnc32)C(O)[C@H]1O (stereo partly specified)", "False"),
    ("N=C(N)c1ccc(OCCCCCOc2ccc(C(=N)N)cc2)cc1", "False"),
]

Please turn your attention to the following entry.
Prompt: Record request — test call for CCCCc1ccc(C(=O)Nc2nccc3ccccc23)nc1
Completion: False

---

system: Schistosoma mansoni schistosomula (Liberian); experiment: drug effect (1 - score/DMSO control score) (fraction); higher = more antischistosomal effect, active = 0.5 or more; extreme values may be limits of the assay; conditions: 72 h; 10 µM
Use one of these outcomes when replying: active, inactive

Observe how each entry below is paired with its result.
# COMPOUND, GROUP
measured = [
    ("CC1CC1C(=O)NC1CCN(CC2(c3ccccc3)CCCCC2)CC1 (stereo unspecified)", "inactive"),
    ("Nc1ncnc2c1c(-c1cnc3ccccc3c1)nn2CC1CCNCC1", "active"),
    ("COc1ccc(C2CC(c3cccs3)=NN2C(=O)c2ccco2)cc1OC (stereo unspecified)", "inactive"),
]

Prompt: Record request — test call for CN1CCC(c2cc(-c3ccncc3)c(-c3ccc(F)cc3)[nH]2)CC1
Completion: inactive

Prompt: Record request — test call for Cc1cnc(N2CCN[C@@H](Cc3ccccc3)C2)nc1Oc1ccc(-n2ccnc2)cc1
Completion: active

Prompt: Record request — test call for C[C@]1(O)C[C@@H](c2nc(-c3ccc4ccc(-c5ccccc5)nc4c3)c3c(N)nccn32)C1
Completion: inactive

Prompt: Record request — test call for Cc1ccccc1C(=O)N1N=C(Nc2ccccc2)SC1(C)C
Completion: inactive

Prompt: Record request — test call for CCC(C)NC(=O)c1ccc(NC(=O)C2(c3ccccc3)CCCC2)cc1 (stereo unspecified)
Completion: inactive

Prompt: Record request — test call for CC(C)=CCC/C(C)=C\CNCCNC1C2CC3CC(C2)CC1C3 (stereo unspecified)
Completion: active

Prompt: Record request — test call for COc1cc(-c2cc(-c3ccc(S(C)(=O)=O)cc3)cnc2N)ccc1O
Completion: inactive

Prompt: Record request — test call for Cc1cc(NCC(C)C)c2n[nH]c(-c3ccccc3)c2n1
Completion: inactive

---

test system: Schistosoma mansoni schistosomula (Liberian); experiment: drug effect (1 - score/DMSO control score) (fraction); higher = more antischistosomal effect, active = 0.5 or more; extreme values may be limits of the assay; details: 24 h; 10 µM
Use one of these outcomes when replying: active, inactive

Observe how each entry below is paired with its result.
# MOLECULE, GROUP
rows = [
    ("Nc1ncc(-c2cn[nH]c2)cc1-c1nc2cc(Cl)cnc2[nH]1", "inactive"),
    ("COc1cccc(CC(=O)N2CCC(n3c(C)nc4ccc(F)cc43)CC2)c1", "inactive"),
    ("c1ccc(Oc2ccc(-c3cncc(-c4ccc5[nH]ccc5c4)n3)cc2)cc1", "active"),
    ("CNc1snc(C)c1C(=O)NCCOc1ccc(OC)cc1", "inactive"),
    ("CS(=O)(=O)c1ccc(C(=O)N(CC2CCCO2)c2nc3ccccc3s2)cc1[N+](=O)[O-] (stereo unspecified)", "active"),
]

Prompt: Record request — test call for CCOC(=O)NC(=O)c1ccsc1NC(=O)c1nc2ccccc2s1
Completion: inactive

Prompt: Record request — test call for COc1ccccc1OCCCCn1c(C2CC2)nc2ccccc21
Completion: inactive

Prompt: Record request — test call for O=C1N(Cc2cc3ccccc3s2)CC2CN(Cc3ccccc3)CCN12 (stereo unspecified)
Completion: inactive

Prompt: Record request — test call for N#Cc1ccc(-c2ccc(OCC(N)=O)cc2)cc1
Completion: inactive

Prompt: Record request — test call for c1ccc(Oc2ccc(-c3cc(CN4CCOCC4)[nH]n3)cc2)cc1
Completion: inactive

Prompt: Record request — test call for CS(=O)(=O)N1CCC(Cn2nc(Cc3cccc4ccccc34)c3c(N)ncnc32)CC1
Completion: inactive

---

test system: Schistosoma mansoni schistosomula (Liberian); assay: drug effect (1 - score/DMSO control score) (fraction); higher = more antischistosomal effect, active = 0.5 or more; extreme values may be limits of the assay; conditions: 24 h; 10 µM
Use one of these outcomes when replying: yes (1) = active, no (0) = inactive

Observe how each entry below is paired with its result.
# COMPOUND, GROUP
rows = [
    ("Cc1nc(-c2ccccn2)nc(NCCc2ccc(S(C)(=O)=O)cc2)c1Cl", "no (0)"),
    ("Cc1ccc(S(=O)(=O)N2CCN(C(=O)c3cc(-c4ccccc4)[nH]n3)CC2)cc1", "no (0)"),
    ("O=C(NC1CC1)c1ccc(CSCc2ccccc2Cl)o1", "no (0)"),
]

Prompt: Record request — test call for COc1ccc(S(=O)(=O)Nc2ccc(CN3CCN(C(=O)c4cccc(C#N)c4)CC3)cc2)cc1
Completion: no (0)

Prompt: Record request — test call for CCC(NC(=O)c1ccccc1NC(=O)c1ccc(C)cc1)C(=O)OC (stereo not given)
Completion: no (0)

Prompt: Record request — test call for CC(=O)N1CCc2cc3nc(C)cc(C)c3cc21
Completion: no (0)

Prompt: Record request — test call for c1ccc(Oc2ccc(-c3cc(C4CCOCC4)[nH]n3)cc2)cc1
Completion: no (0)

Prompt: Record request — test call for Cc1nc2ccccn2c1C(=O)NCc1ccc(Cl)cc1
Completion: no (0)
